Target: Acetylcholinesterase (Electrophorus electricus) (UniProt O42275)
Sequence (O42275 24-633 limits assumed): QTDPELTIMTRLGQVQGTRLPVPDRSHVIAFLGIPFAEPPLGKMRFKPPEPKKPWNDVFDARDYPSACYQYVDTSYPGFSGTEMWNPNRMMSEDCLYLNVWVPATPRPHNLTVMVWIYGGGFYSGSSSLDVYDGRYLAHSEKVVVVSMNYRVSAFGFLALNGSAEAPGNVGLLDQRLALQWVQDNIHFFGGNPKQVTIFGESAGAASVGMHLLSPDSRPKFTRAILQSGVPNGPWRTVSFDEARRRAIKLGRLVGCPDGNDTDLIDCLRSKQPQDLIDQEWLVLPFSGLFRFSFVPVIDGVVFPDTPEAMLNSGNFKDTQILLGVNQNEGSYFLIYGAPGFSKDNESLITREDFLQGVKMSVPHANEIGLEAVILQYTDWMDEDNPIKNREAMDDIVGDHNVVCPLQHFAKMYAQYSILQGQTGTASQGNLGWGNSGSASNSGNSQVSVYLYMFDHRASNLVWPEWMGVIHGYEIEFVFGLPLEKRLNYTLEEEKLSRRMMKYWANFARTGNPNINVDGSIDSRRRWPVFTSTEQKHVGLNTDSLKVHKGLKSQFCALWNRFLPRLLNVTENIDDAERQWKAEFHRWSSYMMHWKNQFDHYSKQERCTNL
Assay: Inhibition of electric eel AChE at 50 uM using acetylthiocholine iodide as substrate and measured for 1 min by spectrophotometrc analysis relative to control
MEASURED ATTRIBUTE: inhibition (%)
Give the quantity in %, number only.

Example results:
| SMILES ENTRY | TGT | inhibition [%] |
| --- | --- | --- |
| CC(C)(C)OC(=O)NCCCC[C@H](NC(=O)OCC1c2ccccc2-c2ccccc21)C(=O)NCC[N+](C)(C)C.[I-] | Acetylcholinesterase (Electrophorus electricus) (UniProt O42275) | 20 |
| C[N+](C)(C)CCNC(=O)[C@H](Cc1ccccc1)NC(=O)OCC1c2ccccc2-c2ccccc21.[I-] | Acetylcholinesterase (Electrophorus electricus) (UniProt O42275) | 10 |
| CC(C)(C)OC(=O)n1cc(C[C@H](NC(=O)OCC2c3ccccc3-c3ccccc32)C(=O)NCC[N+](C)(C)C)c2ccccc21.[I-] | Acetylcholinesterase (Electrophorus electricus) (UniProt O42275) | 30 |

Any idea what inhibition was measured for "C[N+](C)(C)CCNC(=O)CNC(=O)OCC1c2ccccc2-c2ccccc21.[I-]" ? 10

Attribution: ChEMBL document CHEMBL5370562
